Answer each item with its documented viability at 28.5 h, 10 µM.
Assay: in vitro
Conditions: human, hela cells, % viability
Only the number, expressed in %, is required.

May I ask what viability at 28.5 h, 10 µM has been recorded for COc1ccc(/C=C(/C#N)C(=O)Nc2cccc(C)c2C)cc1C(=O)O [CBK262751] ?
87.4

Check Cc1noc(C)c1CN1CCC(Oc2ccccc2)CC1 [CBK305811] too.
89.6

Try this molecule next: CC(C)n1c(=O)[nH]c2ccncc2c1=O [CBK015763]
88.8

Another: CN1CCN(c2nc3c(c(=O)n(C)c(=O)n3C)n2CCSc2nc3ccccc3o2)CC1 [CBK269452]
90
